A collection of substances and their measured Relative Fluorescence of Transfection of C2C12 Cells (RF)
- System: C2C12 Cells
- assay_info: GFP plasmid transfection with DOTMA/DOPE plus surface ligand peptide, fluorescent plate reader (Example 1)
- Assay type: cell-based, mouse
- details: DOTMA/DOPE + peptide linked to R12 or K16; EF1Alpha eGFP plasmid; 42 hours
Output: the number by itself.

# substance, test_result
measured = [
    ("363 (LAGSCLARFSTM) [compound 363]", 1080),
    ("237 (KNSFMALYLSKG) [compound 237]", 6491),
    ("354 (SINNTAVMQRLT) [compound 354]", 1912),
]

## Task Using the record for 268 (GGFLKYTVSYDI) [compound 268] , report its Relative Fluorescence of Transfection of C2C12 Cells (RF).
## Result 2568

## Task Would you mind doing 501 (DLGTAGSCLRRFSTM) [compound 501] as well?
## Result 5913

====

- System: Jurkat Cells
- assay_info: GFP plasmid transfection with DOTMA/DOPE plus surface ligand peptide, fluorescent plate reader (Example 1)
- Format: cell-based
- details: DOTMA/DOPE + peptide linked to R12 or K16; EF1Alpha eGFP plasmid; 42 hours
Could you please mark MET for values of Relative Fluorescence of Transfection of Jurkat Cells (RF) below 8000 and NOT MET for values at or above it?

Would you please look over these solved cases?
# substance, test_target, group
rows = [
    ("341 (LRAHAVDVNG) [compound 341]", "Jurkat Cells", "NOT MET"),
    ("220 (ATETTITIS) [compound 220]", "Jurkat Cells", "MET"),
    ("503 (TAGSCLRKFSTMRRRRRRRRRRRR) [compound 503]", "Jurkat Cells", "NOT MET"),
]

## Task Dear colleague, could you confirm whether Relative Fluorescence of Transfection of Jurkat Cells (RF) of 256 (RQVFQVAYIIIKA) [compound 256] falls below 8000? Thanks.
## Result MET

## Task Next up: 363 (LAGSCLARFSTM) [compound 363]
## Result MET

## Task How about this substance: 342 (TAGSCLRKFSTM) [compound 342]
## Result NOT MET

## Task Same lookup for 234 (YEKPGSPPREVVPRPRPGV) [compound 234] , please.
## Result MET

## Task Next substance: 365 (ISRCQVCMKKRH) [compound 365]
## Result MET

## Task Entry 377 (TAGSCLRRFSTM) [compound 377] please
## Result MET

## Task Proceed to 216 (YRVRVTPKEKTGPMKE) [compound 216]
## Result MET

## Task // next record 359 (KAFDITYVRLKF) [compound 359]
## Result MET

## Task Follow-up entry: 343 (LFSHAVSSNG) [compound 343]
## Result NOT MET

====

- Test system: C2C12 Cells
- assay_info: GFP plasmid transfection with DOTMA/DOPE plus surface ligand peptide, fluorescent plate reader (Example 1)
- Type: cell-based, mouse
- details: DOTMA/DOPE + peptide linked to R12 or K16; EF1Alpha eGFP plasmid; 42 hours
Classify on Relative Fluorescence of Transfection of C2C12 Cells (RF) using lower band: < 2000; central band: ≥ 2000 and < 4000; upper band: ≥ 4000

Previously resolved entries follow.
# substance, group
measured = [
    ("344 (KGHRGF) [compound 344]", "lower band"),
    ("341 (LRAHAVDVNG) [compound 341]", "central band"),
    ("381 (TAGSCL) [compound 381]", "upper band"),
    ("343 (LFSHAVSSNG) [compound 343]", "central band"),
    ("355 (FRHRNRKGY) [compound 355]", "lower band"),
]

## Task Textbook exercise: identify the category of the substance given here, 326 (RLVSYSGVLFFLK) [compound 326] , according to its measured value.
## Result upper band

## Task What do we get for 450 (TAGSCLRKFSCL) [compound 450] ?
## Result central band

## Task Repeat with 342 (TAGSCLRKFSTM) [compound 342]
## Result upper band

## Task Okay, and 359 (KAFDITYVRLKF) [compound 359] ?
## Result upper band

## Task Same read-out for 379 (TAGSCLRKF) [compound 379] ?
## Result central band

## Task Also, 345 (TAGSCLRKFSTMFLF) [compound 345] please.
## Result upper band

====

- System: Jurkat Cells
- assay_info: GFP plasmid transfection with DOTMA/DOPE plus surface ligand peptide, fluorescent plate reader (Example 1)
- Assay type: cell-based
- details: DOTMA/DOPE + peptide linked to R12 or K16; EF1Alpha eGFP plasmid; 42 hours
Relative Fluorescence of Transfection of Jurkat Cells (RF) for assorted substances
Form field (numeric): enter value without unit.

# substance, test_result
rows = [
    ("229 (PPFLMLLKGSTR) [compound 229]", 8079),
    ("369 (TAIPSCPEGTVPLYS) [compound 369]", 11085),
    ("351 (LNRQELFPFG) [compound 351]", 9730),
]

## Task I have this substance here, 375 (LAGSCLPVFSTL) [compound 375] , and I need its recorded Relative Fluorescence of Transfection of Jurkat Cells (RF).
## Result 4272

## Task Same thing, different substance: 332 (TWYKIAFQRNRK) [compound 332]
## Result 3052

## Task And for 338 (GTPGPQGIA) [compound 338] ?
## Result 4475

## Task Note, next up: 349 (RNIAEIIKDI) [compound 349]
## Result 23167

## Task Item: 268 (GGFLKYTVSYDI) [compound 268]
## Result 3236

## Task And what about the substance 354 (SINNTAVMQRLT) [compound 354] ?
## Result 16705

## Task Also 224 (KPDVRSYTITG) [compound 224] ?
## Result 13170

## Task Same again, this time with 381 (TAGSCL) [compound 381]
## Result 10806

## Task What do we get for 344 (KGHRGF) [compound 344] ?
## Result 10160

## Task Ok, now 326 (RLVSYSGVLFFLK) [compound 326]
## Result 3018

## Task Could you do the same for 335 (TVFSVDQDNMLE) [compound 335] , please?
## Result 4567

====

- Test system: C2C12 Cells
- assay_info: GFP plasmid transfection with DOTMA/DOPE plus surface ligand peptide, fluorescent plate reader (Example 1)
- Format: cell-based, mouse
- details: DOTMA/DOPE + peptide linked to R12 or K16; EF1Alpha eGFP plasmid; 42 hours
Quick rule for you: Relative Fluorescence of Transfection of C2C12 Cells (RF) at 2000 or higher means Criterion met, lower means Criterion not met.

Solved entries:
# substance, test_target, group
data = [
    ("369 (TAIPSCPEGTVPLYS) [compound 369]", "C2C12 Cells", "Criterion met"),
    ("338 (GTPGPQGIA) [compound 338]", "C2C12 Cells", "Criterion met"),
    ("220 (ATETTITIS) [compound 220]", "C2C12 Cells", "Criterion not met"),
]

Consider now this further substance.
## Task Does 353 (KKQRFRHRNRKGYRSQ) [compound 353] have a reported Relative Fluorescence of Transfection of C2C12 Cells (RF) of at least 2000?
## Result Criterion met

// data source = patent US20250154525A1
